Assay: Weight change in the period of drug administration
Assay type: in vivo, mouse
Settings: Day 8 from the cancer cell transplantation
OUTCOME MEASURE: Weight of mouse, Day 8 (g)
Supply the numeric figure in g, leaving out any unit text.

Examples with answers:
COc1cc([C@@H]2c3cc4c(cc3[C@@H](O[C@@H]3O[C@@H]5CO[C@@H](C)O[C@H]5[C@H](O)[C@H]3O)[C@H]3COC(=O)[C@H]23)OCO4)cc(OC)c1O [Etoposide, reference compound]: 26.6
COc1cc(C2c3cc4c(cc3CC3COC(=O)C32)OCO4)cc(OC)c1OC(=O)NC(C)C (centres unmarked) [Compound 1b-2]: 26
COc1cc(C2c3cc4c(cc3CC3COC(=O)C32)OCO4)cc(OC)c1OC(=O)CCCCCCN (centres unmarked) [Compound 1a-14]: 22.5
COc1cc(C2c3cc4c(cc3CC3COC(=O)C32)OCO4)cc(OC)c1OC(=O)CCCCN (centres unmarked) [Compound 1a-12]: 26.2

Would you kindly look at the next entry?
INPUT: Return Weight of mouse, Day 8 for the following compound: COc1cc(C2c3cc4c(cc3CC3COC(=O)C32)OCO4)cc(OC)c1OC(=O)C(N)CC(C)C (centres unmarked) [Compound 1a-2]
OUTPUT: 26.1

* * *

This listing pairs compounds with measured Weight of mouse, Day 8.
Assay: Weight change in the period of drug administration
Format: in vivo, mouse
Details: Day 8 from the cancer cell transplantation
Procedure: Each group includes 5 mice. […] As an index of toxicity, the weight change during the period of drug administration was recorded for the compounds of formulae (1a) and (1b) compared with the comparison compound of Etoposide.
Give the figure together with its unit, number first.

The examples below pair each entry with its known result.
COc1cc(C2c3cc4c(cc3CC3COC(=O)C32)OCO4)cc(OC)c1OC(=O)CCCCCN (stereo not shown): 26.2 g
COc1cc(C2c3cc4c(cc3CC3COC(=O)C32)OCO4)cc(OC)c1OC(=O)CCCN (stereo not shown): 25.5 g
COc1cc(C2c3cc4c(cc3CC3COC(=O)C32)OCO4)cc(OC)c1OC(=O)NCCCl (stereo not shown): 25.8 g
COc1cc(C2c3cc4c(cc3CC3COC(=O)C32)OCO4)cc(OC)c1OC(=O)NCCO (stereo not shown): 23.2 g
COc1cc(C2c3cc4c(cc3CC3COC(=O)C32)OCO4)cc(OC)c1OC(=O)NC1CCCCC1 (stereo not shown): 25.5 g

INPUT: Quick one: give measured Weight of mouse, Day 8 for COc1cc(C2c3cc4c(cc3CC3COC(=O)C32)OCO4)cc(OC)c1OC(=O)CCN (stereo not shown)
OUTPUT: 25.3 g

INPUT: Return Weight of mouse, Day 8 (reported value) for this compound: `COc1cc([C@@H]2c3cc4c(cc3C[C@H]3COC(=O)[C@@H]32)OCO4)cc(OC)c1OC`
OUTPUT: 24.9 g

* * *

Assay: Weight change in the period of drug administration
Format: in vivo, mouse
Details: Day 2 from the cancer cell transplantation
OUTCOME MEASURE: Weight of mouse, Day 2

Look over these answered cases.
COc1cc([C@@H]2c3cc4c(cc3[C@@H](O[C@@H]3O[C@@H]5CO[C@@H](C)O[C@H]5[C@H](O)[C@H]3O)[C@H]3COC(=O)[C@H]23)OCO4)cc(OC)c1O [Etoposide, reference compound]: 24 g
COc1cc(C2c3cc4c(cc3CC3COC(=O)C32)OCO4)cc(OC)c1OC(=O)CCN (stereo not drawn): 24.1 g

Could you now look at the following compound, please?
INPUT: Find the measured Weight of mouse, Day 2 of `COc1cc([C@@H]2c3cc4c(cc3C[C@H]3COC(=O)[C@@H]32)OCO4)cc(OC)c1OC` and report it.
OUTPUT: 23.9 g

* * *

Assay: Weight change in the period of drug administration
Assay type: in vivo, mouse
Settings: Day 3 from the cancer cell transplantation
OUTCOME MEASURE: Weight of mouse, Day 3
Param answer (str): number followed by unit.

# example entries with known answers
COc1cc(C2c3cc4c(cc3CC3COC(=O)C32)OCO4)cc(OC)c1OC(=O)NCCO (stereo not shown): 22.2 g
COc1cc(C2c3cc4c(cc3CC3COC(=O)C32)OCO4)cc(OC)c1OC(=O)C(N)CC(C)C (stereo not shown): 25 g
COc1cc(C2c3cc4c(cc3CC3COC(=O)C32)OCO4)cc(OC)c1OC(=O)CCCCCN (stereo not shown): 25 g

INPUT: Supply measured Weight of mouse, Day 3 of COc1cc(C2c3cc4c(cc3CC3COC(=O)C32)OCO4)cc(OC)c1OC(=O)CCCCN (stereo not shown) in your reply.
OUTPUT: 25 g

INPUT: Specify measured Weight of mouse, Day 3 for COc1cc(C2c3cc4c(cc3CC3COC(=O)C32)OCO4)cc(OC)c1OC(=O)CCN (stereo not shown) .
OUTPUT: 25 g

INPUT: Report measured Weight of mouse, Day 3; entry is COc1cc([C@@H]2c3cc4c(cc3[C@@H](O[C@@H]3O[C@@H]5CO[C@@H](C)O[C@H]5[C@H](O)[C@H]3O)[C@H]3COC(=O)[C@H]23)OCO4)cc(OC)c1O [Etoposide, reference compound]
OUTPUT: 25.1 g

INPUT: Given COc1cc(C2c3cc4c(cc3CC3COC(=O)C32)OCO4)cc(OC)c1OC(=O)NC1CCCCC1 (stereo not shown) , respond with its Weight of mouse, Day 3.
OUTPUT: 25 g

* * *

System: A549 cell
Test: Cytotoxicity test (SRB method) for A549 cells
Assay type: cell-based, human
Details: A549 human lung cancer cell, SRB, 48 hours incubation; read-out: ED50(nM) for A549
EC50 by entry:

These recorded examples may help you get a feel for the data.
COc1cc(C2c3cc4c(cc3CC3COC(=O)C32)OCO4)cc(OC)c1OC(=O)NCCCl (stereo not shown): 92 nM
COc1cc(C2c3cc4c(cc3CC3COC(=O)C32)OCO4)cc(OC)c1OC(=O)C(N)CC(C)C (stereo not shown): 68 nM
COc1ccc(NC(=O)Oc2c(OC)cc(C3c4cc5c(cc4CC4COC(=O)C43)OCO5)cc2OC)cc1 (stereo not shown): 95.6 nM

Okay, now this compound:
INPUT: State its EC50: COc1cc([C@@H]2c3cc4c(cc3[C@@H](O[C@@H]3O[C@@H]5CO[C@@H](C)O[C@H]5[C@H](O)[C@H]3O)[C@H]3COC(=O)[C@H]23)OCO4)cc(OC)c1O [Etoposide, reference compound]
OUTPUT: 1990 nM

* * *

Assay: Weight change in the period of drug administration
Type: in vivo, mouse
Conditions: Day 1 from the cancer cell transplantation
Experimental: Each group includes 5 mice. […] As an index of toxicity, the weight change during the period of drug administration was recorded for the compounds of formulae (1a) and (1b) compared with the comparison compound of Etoposide.
Reported Weight of mouse, Day 1 is given for each of the following compounds.
# output: bare number, implied unit g

Use the examples below as a reference point.
COc1cc([C@@H]2c3cc4c(cc3[C@@H](O[C@@H]3O[C@@H]5CO[C@@H](C)O[C@H]5[C@H](O)[C@H]3O)[C@H]3COC(=O)[C@H]23)OCO4)cc(OC)c1O [Etoposide, reference compound]: 23
COc1cc(C2c3cc4c(cc3CC3COC(=O)C32)OCO4)cc(OC)c1OC(=O)NC(C)C (centres unmarked): 22.8

INPUT: Respond only with Weight of mouse, Day 1 recorded for `COc1cc([C@@H]2c3cc4c(cc3C[C@H]3COC(=O)[C@@H]32)OCO4)cc(OC)c1OC`
OUTPUT: 23.1

INPUT: Find the measured Weight of mouse, Day 1 of COc1cc(C2c3cc4c(cc3CC3COC(=O)C32)OCO4)cc(OC)c1OC(=O)NCCO (centres unmarked) and report it.
OUTPUT: 23.4

INPUT: Give the value of Weight of mouse, Day 1 reported for the following: COc1cc(C2c3cc4c(cc3CC3COC(=O)C32)OCO4)cc(OC)c1OC(=O)CCN (centres unmarked)
OUTPUT: 22.9
